# measured_on: wild‐type estrogen receptor 1 (ESR1) (Homo sapiens, UniProt P03372)
# Sequence (P03372 whole entry): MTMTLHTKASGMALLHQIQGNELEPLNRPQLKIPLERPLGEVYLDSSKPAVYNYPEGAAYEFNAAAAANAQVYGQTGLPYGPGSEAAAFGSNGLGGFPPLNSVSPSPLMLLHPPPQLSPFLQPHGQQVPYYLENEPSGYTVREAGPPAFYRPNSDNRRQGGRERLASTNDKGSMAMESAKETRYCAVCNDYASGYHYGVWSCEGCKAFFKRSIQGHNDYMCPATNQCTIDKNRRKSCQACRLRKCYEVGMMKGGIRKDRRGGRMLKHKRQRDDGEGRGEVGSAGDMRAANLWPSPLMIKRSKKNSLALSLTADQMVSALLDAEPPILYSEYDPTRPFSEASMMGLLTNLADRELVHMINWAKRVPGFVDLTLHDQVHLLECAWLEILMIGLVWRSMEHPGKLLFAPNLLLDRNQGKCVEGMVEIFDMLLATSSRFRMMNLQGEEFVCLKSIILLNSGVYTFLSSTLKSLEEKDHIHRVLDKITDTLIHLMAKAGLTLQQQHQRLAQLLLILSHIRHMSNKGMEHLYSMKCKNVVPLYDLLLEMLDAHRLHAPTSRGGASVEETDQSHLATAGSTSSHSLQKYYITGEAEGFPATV
# test_protocol: Wild‐type estrogen receptor 1

- chem_smiles: "C[C@]12CC[C@@H]3c4ccc(O)cc4C[C@@H](CCCCCCCCC[S@](=N)(=O)CCCC(F)(F)C(F)(F)F)[C@H]3[C@@H]1CC[C@@H]2O"
  IC50 [nM]: 1.8

====

Each record here notes measured CLb hLMs.
# test_protocol: High‐throughput metabolic stability assay, pooled human liver microsomes
# condition_context: predicted hepatic metabolic (blood) clearance

- compound: "CCCc1nc(C)c2c(=O)[nH]c(-c3cc(S(=O)(=O)N4CCN(CC)CC4)ccc3OCC)nn12 [vardenafil, reference compound]"
  CLb hLMs (mL/min/kg): 18.3
- compound: "CN(C)C(=O)c1cc2cnc(Nc3ccc(N4CCS(=N)(=O)CC4)cn3)nc2n1C1CCCC1"
  CLb hLMs (mL/min/kg): 3.5
- compound: "CC(=O)c1c(C)c2cnc(Nc3ccc(N4CCS(=N)(=O)CC4)cn3)nc2n(C2CCCC2)c1=O"
  CLb hLMs (mL/min/kg): 4
- compound: "O=C(NC1CCNCC1)c1n[nH]cc1NC(=O)c1c(Cl)cccc1Cl [AT7519, reference compound]"
  CLb hLMs (mL/min/kg): 4

====

molecules and their reported P app A→B
# Test system: Caco2
# test_protocol: Bidirectional Caco2 permeability assay, 24‐well format
# condition_context: Caco2, apical to basolateral

- molecule: "CCCc1nc(C)c2c(=O)[nH]c(-c3cc(S(=O)(=O)N4CCN(CC)CC4)ccc3OCC)nn12 [vardenafil, reference compound]"
  P app A→B: "20.6 ×10⁻⁶ cm/s"
- molecule: "CC(=O)c1c(C)c2cnc(Nc3ccc(N4CCNCC4)cn3)nc2n(C2CCCC2)c1=O [palbociclib, reference compound]"
  P app A→B: "7 ×10⁻⁶ cm/s"
- molecule: "CC(=O)c1c(C)c2cnc(Nc3ccc(N4CCS(=N)(=O)CC4)cn3)nc2n(C2CCCC2)c1=O [compound 23]"
  P app A→B: "2.5 ×10⁻⁶ cm/s"

====

# test_protocol: Bidirectional Caco2 permeability assay, 24‐well format
# condition_context: human, Caco-2, ER, Caco2 efflux ratio, P app B→A/P app A→B
readout_name: efflux ratio at 90 min

- molecule: "CCCc1nc(C)c2c(=O)[nH]c(-c3cc(S(=O)(=O)N4CCS(=N)(=O)CC4)ccc3OCC)nn12 [compound 29]"
  readout_name: "efflux ratio at 90 min"
  result: "> 200"

====

# test_protocol: logD by reversed‐phase HPLC
# condition_context: pH 7.5
readout_name: chromatographic logD

- compound: "CC(=O)c1c(C)c2cnc(Nc3ccc(N4CCS(=N)(=O)CC4)cn3)nc2n(C2CCCC2)c1=O"
  measured_number: 2
- compound: "C[C@]12CC[C@@H]3c4ccc(O)cc4C[C@@H](CCCCCCCCC[S+]([O-])CCCC(F)(F)C(F)(F)F)[C@H]3[C@@H]1CC[C@@H]2O (stereo partly shown) [fulvestrant, reference compound]"
  measured_number: 4.2
- compound: "O=C(NC1CCNCC1)c1n[nH]cc1NC(=O)c1c(Cl)cccc1Cl [AT7519, reference compound]"
  measured_number: 1.3
- compound: "N=S1(=O)CCC(NC(=O)c2n[nH]cc2NC(=O)c2c(Cl)cccc2Cl)CC1 (stereo not shown)"
  measured_number: 1.6
- compound: "CN(C)C(=O)c1cc2cnc(Nc3ccc(N4CCS(=N)(=O)CC4)cn3)nc2n1C1CCCC1"
  measured_number: 1.8
- compound: "CN(C)C(=O)c1cc2cnc(Nc3ccc(N4CCNCC4)cn3)nc2n1C1CCCC1 [ribociclib, reference compound]"
  measured_number: 1.7
- compound: "C[C@]12CC[C@@H]3c4ccc(O)cc4C[C@@H](CCCCCCCCC[S@](=N)(=O)CCCC(F)(F)C(F)(F)F)[C@H]3[C@@H]1CC[C@@H]2O"
  measured_number: 3.8
